Field: Relative KD. Provide a value for each of the binders that follow.
testedTarget: T1, recombinant human TIGIT (Sino Biological) (human, UniProt Q495A1 22-138)
T1 construct: Bought protein; NP_776160.2; also called human TIGIT antigen; hTIGIT
T1 sequence: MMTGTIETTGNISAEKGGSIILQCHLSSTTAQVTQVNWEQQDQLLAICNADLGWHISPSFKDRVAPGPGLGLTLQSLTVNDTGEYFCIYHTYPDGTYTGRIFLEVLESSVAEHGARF
assayInfo: SPR single cycle kinetics; KD divided by KD of the VH0/Vκ0 chimeric antibody;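 also: biacore T200 SPR at 25 °C, IgG captured on anti-human chip, TIGIT analyte in four rising concentrations, 210 s association each, 900 s dissociation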

Which Relative KD is reported for this binder? 7A6 VH1/Vκ3 humanized antibody (human IgG1, kappa) (antibody, V domains shown, Tested as IgG in supernatant of transiently transfected HEK293 EBNA cells) VH: DVQLQESGPGLVKPSQTLSLTCTVTGYSITSDYAWNWIRQPPGKGLEWMGYISYSGSARYNPSLKSRITISRDTSMNQFSLKLNSVTAEDTATYYCARKGYPAYFAYWGQGTLVTVSS VL: DIQMTQSPSSLSASVGDRVSITCKASQDVSTAVAWYQQKPGQAPRLLIYSASYRYTGVPDRFSGSGSGTDFTLTISSLQAEDVAVYYCQHHYSTPYTFGQGTKLEIKR
1.48

Which Relative KD is reported for this binder? anti-TIGIT 7A6 VH3/Vk5 humanized antibody (human IgG1, kappa) (antibody, V domains shown, also called VH3Vκ5; 7A6 VH3/Vk5-IgG1) VH: QVQLQESGPGLVKPSQTLSLTCTVTGYSITSDYAWNWIRQPPGKGLEWMGYISYSGSARYNPSLKSRVTISRDTSKNQFSLKLSSVTAEDTATYYCARKGYPAYFAYWGQGTLVTVSS VL: DIQMTQSPSSLSASVGDRVSITCKASQDVSTAVAWYQQKPGQAPRLLIYSASYRYTGVPDRFSGSGSGTDFTLTISSLQPEDFATYYCQHHYSTPYTFGQGTKLEIKR
1.34

Which Relative KD is reported for this binder? 7A6 VH4/Vκ4 humanized antibody (human IgG1, kappa) (antibody, V domains shown, also called 7A6 VH4/Vk4; 7A6VH4/Vk4) VH: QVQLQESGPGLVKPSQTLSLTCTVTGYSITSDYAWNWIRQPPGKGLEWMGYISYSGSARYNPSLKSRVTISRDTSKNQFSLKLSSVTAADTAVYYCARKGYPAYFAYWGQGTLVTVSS VL: DIQMTQSPSSLSASVGDRVTITCRASQDVSTAVAWYQQKPGQAPRLLIYSASYRYTGVPDRFSGSGSGTDFTLTISSLQAEDVAVYYCQHHYSTPYTFGQGTKLEIKR
1.98

Which Relative KD is reported for this binder? 7A6 VH2/Vκ4 humanized antibody (human IgG1, kappa) (antibody, V domains shown, Tested as IgG in supernatant of transiently transfected HEK293 EBNA cells) VH: DVQLQESGPGLVKPSQTLSLTCTVTGYSITSDYAWNWIRQPPGKGLEWMGYISYSGSARYNPSLKSRITISRDTSKNQFSLKLSSVTAEDTATYYCARKGYPAYFAYWGQGTLVTVSS VL: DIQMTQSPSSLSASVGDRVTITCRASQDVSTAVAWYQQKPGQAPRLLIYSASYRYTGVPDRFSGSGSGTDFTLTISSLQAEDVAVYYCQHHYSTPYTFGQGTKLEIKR
1.58

Which Relative KD is reported for this binder? 7A6 VH1/Vκ4 humanized antibody (human IgG1, kappa) (antibody, V domains shown, Tested as IgG in supernatant of transiently transfected HEK293 EBNA cells) VH: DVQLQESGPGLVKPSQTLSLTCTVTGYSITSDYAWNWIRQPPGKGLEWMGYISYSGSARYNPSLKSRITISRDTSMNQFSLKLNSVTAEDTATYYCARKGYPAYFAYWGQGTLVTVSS VL: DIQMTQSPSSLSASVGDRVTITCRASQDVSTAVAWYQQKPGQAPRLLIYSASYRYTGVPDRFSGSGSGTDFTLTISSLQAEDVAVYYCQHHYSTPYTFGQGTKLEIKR
1.34

Which Relative KD is reported for this binder? 7A6 VH2/Vκ2 humanized antibody (human IgG1, kappa) (antibody, V domains shown, Tested as IgG in supernatant of transiently transfected HEK293 EBNA cells) VH: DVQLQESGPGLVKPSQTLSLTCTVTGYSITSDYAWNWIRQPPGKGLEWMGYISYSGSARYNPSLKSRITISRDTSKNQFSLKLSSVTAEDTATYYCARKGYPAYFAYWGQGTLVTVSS VL: DIVMTQSPSSLSASVGDRVSITCKASQDVSTAVAWYQQKPGQAPRLLIYSASYRYTGVPDRFTGSGSGTDFTLTISSLQAEDVAVYYCQHHYSTPYTFGQGTKLEIKR
1.47

Which Relative KD is reported for this binder? 7A6 VH4/Vκ2 humanized antibody (human IgG1, kappa) (antibody, V domains shown, Tested as IgG in supernatant of transiently transfected HEK293 EBNA cells) VH: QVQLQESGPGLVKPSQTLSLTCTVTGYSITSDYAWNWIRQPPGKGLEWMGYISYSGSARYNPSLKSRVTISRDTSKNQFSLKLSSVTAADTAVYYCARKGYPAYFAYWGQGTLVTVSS VL: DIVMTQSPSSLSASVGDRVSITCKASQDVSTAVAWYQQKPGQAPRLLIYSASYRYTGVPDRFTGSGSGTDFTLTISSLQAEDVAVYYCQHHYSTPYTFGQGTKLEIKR
1.63

Each recorded value in this set is attributed to patent US20250064909A1.
